# TARGET: Survival motor neuron protein (Homo sapiens) (UniProt Q16637)
# Sequence (Q16637 whole entry): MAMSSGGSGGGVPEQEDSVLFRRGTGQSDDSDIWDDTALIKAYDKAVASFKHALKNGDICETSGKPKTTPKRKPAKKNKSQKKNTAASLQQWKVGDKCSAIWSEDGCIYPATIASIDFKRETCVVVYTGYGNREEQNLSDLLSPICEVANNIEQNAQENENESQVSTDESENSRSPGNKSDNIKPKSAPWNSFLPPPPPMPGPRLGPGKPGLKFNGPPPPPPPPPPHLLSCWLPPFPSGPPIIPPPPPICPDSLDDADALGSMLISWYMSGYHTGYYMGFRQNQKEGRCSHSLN
# EXPERIMENT_NOTES: Activation of SMN expressed in HEK293 cells assessed as concentration required to reach 50% of maximum luciferase signal by SMN2-promotor driven luciferase reporter gene assay
# Type: cell-based
The source made the active and inactive calls. The rule behind the calls is not given here.
RECORDED_ENDPOINT: Activity

- MOLECULE: "NC(=O)C1CCN(c2ncnc(-c3ccc4c(c3)OCCCO4)n2)CC1"
  RECORDED_ENDPOINT: "Activity"
  TEST_RESULT: "2.44 µM"
- MOLECULE: "NC(=O)C1CCN(c2ncc(-c3ccc4c(c3)OCO4)s2)CC1"
  RECORDED_ENDPOINT: "Activity"
  TEST_RESULT: "0.049 µM"
- MOLECULE: "NC(=O)C1CCN(c2nc(-c3ccccc3Br)cs2)CC1"
  RECORDED_ENDPOINT: "Activity"
  TEST_RESULT: "inactive"
- MOLECULE: "NC(=O)C1CCN(c2nc(-c3cccnc3)cs2)CC1"
  RECORDED_ENDPOINT: "Activity"
  TEST_RESULT: "inactive"
- MOLECULE: "Cc1noc(C)c1-c1csc(N2CCC(C(N)=O)CC2)n1"
  RECORDED_ENDPOINT: "Activity"
  TEST_RESULT: "inactive"
- MOLECULE: "NC(=O)C1CCN(c2nc(-c3cccc([N+](=O)[O-])c3)cs2)CC1"
  RECORDED_ENDPOINT: "Activity"
  TEST_RESULT: "3.87 µM"
- MOLECULE: "Cc1ccc(-c2csc(N3CCC(C(N)=O)CC3)n2)cc1"
  RECORDED_ENDPOINT: "Activity"
  TEST_RESULT: "1.22 µM"
- MOLECULE: "N#Cc1ccccc1-c1csc(N2CCC(C(N)=O)CC2)n1"
  RECORDED_ENDPOINT: "Activity"
  TEST_RESULT: "inactive"
- MOLECULE: "NC(=O)C1CCN(c2ncc(-c3cccc(F)c3)s2)CC1"
  RECORDED_ENDPOINT: "Activity"
  TEST_RESULT: "2.44 µM"
- MOLECULE: "N#Cc1cccc(-c2csc(N3CCC(C(N)=O)CC3)n2)c1"
  RECORDED_ENDPOINT: "Activity"
  TEST_RESULT: "inactive"
- MOLECULE: "COc1cc(OC)cc(-c2csc(N3CCC(C(N)=O)CC3)n2)c1"
  RECORDED_ENDPOINT: "Activity"
  TEST_RESULT: "7.72 µM"
- MOLECULE: "NC(=O)C1CCN(c2nc(-c3ccccc3[N+](=O)[O-])cs2)CC1"
  RECORDED_ENDPOINT: "Activity"
  TEST_RESULT: "inactive"
- MOLECULE: "CC(C)Oc1cccc(-c2ccnc(N3CCC(C(N)=O)CC3)n2)c1"
  RECORDED_ENDPOINT: "Activity"
  TEST_RESULT: "0.154 µM"
- MOLECULE: "O=C(NCCc1ccccc1)C1CCN(c2nc(-c3ccc(Br)cc3)cs2)CC1"
  RECORDED_ENDPOINT: "Activity"
  TEST_RESULT: "6.13 µM"
- MOLECULE: "NC(=O)C1CCN(c2nccc(-c3ccc4c(c3)OCCCO4)n2)CC1"
  RECORDED_ENDPOINT: "Activity"
  TEST_RESULT: "1.54 µM"
- MOLECULE: "CC(=O)c1ccc(-c2csc(N3CCC(C(N)=O)CC3)n2)cc1"
  RECORDED_ENDPOINT: "Activity"
  TEST_RESULT: "12.2 µM"
- MOLECULE: "NC(=O)C1CCN(c2nc(-c3ccccc3)cs2)CC1"
  RECORDED_ENDPOINT: "Activity"
  TEST_RESULT: "7.72 µM"
- MOLECULE: "CC(C)Oc1cccc(-c2cnc(N3CCC(C(N)=O)CC3)s2)c1"
  RECORDED_ENDPOINT: "Activity"
  TEST_RESULT: "0.077 µM"
- MOLECULE: "NC(=O)C1CCN(c2ncc(-c3ccc4c(c3)OCCO4)s2)CC1"
  RECORDED_ENDPOINT: "Activity"
  TEST_RESULT: "0.097 µM"
- MOLECULE: "O=C(NCCCCc1ccccc1)C1CCN(c2nc(-c3ccc(Br)cc3)cs2)CC1"
  RECORDED_ENDPOINT: "Activity"
  TEST_RESULT: "inactive"
- MOLECULE: "NC(=O)C1CCN(c2ncc(Br)s2)CC1"
  RECORDED_ENDPOINT: "Activity"
  TEST_RESULT: "inactive"
- MOLECULE: "Brc1ccc(-c2csc(N3CCCCC3)n2)cc1"
  RECORDED_ENDPOINT: "Activity"
  TEST_RESULT: "19.4 µM"
- MOLECULE: "NC(=O)C1CCN(c2nc(-c3ccccc3C(F)(F)F)cs2)CC1"
  RECORDED_ENDPOINT: "Activity"
  TEST_RESULT: "inactive"
- MOLECULE: "O=S(=O)(c1ccccc1)N1CCN(c2nc(-c3ccc(Br)cc3)cs2)CC1"
  RECORDED_ENDPOINT: "Activity"
  TEST_RESULT: "inactive"
- MOLECULE: "CC(C(=O)O)c1ccc(N2Cc3ccccc3C2=O)cc1 (stereo unspecified)"
  RECORDED_ENDPOINT: "Activity"
  TEST_RESULT: "> 1 µM"
- MOLECULE: "NC(=O)C1CCN(c2nc(-c3ccccc3Cl)cs2)CC1"
  RECORDED_ENDPOINT: "Activity"
  TEST_RESULT: "7.72 µM"
- MOLECULE: "CN(C)c1cccc(-c2cnc(N3CCC(C(N)=O)CC3)nc2)c1"
  RECORDED_ENDPOINT: "Activity"
  TEST_RESULT: "0.613 µM"
- MOLECULE: "CC(C)(C)c1ccc(-c2csc(N3CCC(C(N)=O)CC3)n2)cc1"
  RECORDED_ENDPOINT: "Activity"
  TEST_RESULT: "3.87 µM"
- MOLECULE: "CN(C)c1cccc(-c2ccnc(N3CCC(C(N)=O)CC3)n2)c1"
  RECORDED_ENDPOINT: "Activity"
  TEST_RESULT: "0.772 µM"
- MOLECULE: "CN(C)c1cccc(-c2csc(N3CCC(C(N)=O)CC3)n2)c1"
  RECORDED_ENDPOINT: "Activity"
  TEST_RESULT: "0.97 µM"
- MOLECULE: "NC(=O)C1CCN(c2nc(-c3cccc4sc5ccccc5c34)cs2)CC1"
  RECORDED_ENDPOINT: "Activity"
  TEST_RESULT: "30.7 µM"
- MOLECULE: "CC(=O)c1cccc(-c2csc(N3CCC(C(N)=O)CC3)n2)c1"
  RECORDED_ENDPOINT: "Activity"
  TEST_RESULT: "3.87 µM"
- MOLECULE: "NC(=O)C1CCN(c2nc(-c3ccc(Cl)cc3)cs2)CC1"
  RECORDED_ENDPOINT: "Activity"
  TEST_RESULT: "2.44 µM"
- MOLECULE: "CCOc1ccc(-c2csc(N3CCC(C(N)=O)CC3)n2)cc1"
  RECORDED_ENDPOINT: "Activity"
  TEST_RESULT: "3.87 µM"
- MOLECULE: "CSc1ccc(-c2cnc(N3CCC(C(N)=O)CC3)s2)cc1"
  RECORDED_ENDPOINT: "Activity"
  TEST_RESULT: "0.031 µM"
- MOLECULE: "NC(=O)C1CCN(c2ncc(-c3ccc4c(c3)OCCCO4)s2)CC1"
  RECORDED_ENDPOINT: "Activity"
  TEST_RESULT: "0.038 µM"
- MOLECULE: "NC(=O)C1CCN(c2ncc(-c3cccc(N4CCCC4)c3)s2)CC1"
  RECORDED_ENDPOINT: "Activity"
  TEST_RESULT: "0.387 µM"
- MOLECULE: "O=C(C1CCN(c2nc(-c3ccc(Br)cc3)cs2)CC1)N1CCOCC1"
  RECORDED_ENDPOINT: "Activity"
  TEST_RESULT: "30.8 µM"
- MOLECULE: "NC(=O)C1CCN(c2nccc(-c3ccc(Br)cc3)n2)CC1"
  RECORDED_ENDPOINT: "Activity"
  TEST_RESULT: "0.387 µM"
- MOLECULE: "O=C(c1ccccc1)N1CCN(c2nc(-c3ccc(Br)cc3)cs2)CC1"
  RECORDED_ENDPOINT: "Activity"
  TEST_RESULT: "inactive"
- MOLECULE: "NC(=O)C1CCN(c2nc(-c3ccc4c(c3)OCCCO4)cs2)CC1"
  RECORDED_ENDPOINT: "Activity"
  TEST_RESULT: "0.49 µM"
- MOLECULE: "NC(=O)C1CCN(c2nc(-c3cccc(N)c3)cs2)CC1"
  RECORDED_ENDPOINT: "Activity"
  TEST_RESULT: "inactive"
- MOLECULE: "Brc1ccc(-c2csc(N3CCC(c4nnn[nH]4)CC3)n2)cc1"
  RECORDED_ENDPOINT: "Activity"
  TEST_RESULT: "12.2 µM"
- MOLECULE: "CS(=O)(=O)c1cccc(-c2csc(N3CCC(C(N)=O)CC3)n2)c1"
  RECORDED_ENDPOINT: "Activity"
  TEST_RESULT: "inactive"
- MOLECULE: "CS(=O)(=O)c1ccc(-c2csc(N3CCC(C(N)=O)CC3)n2)cc1"
  RECORDED_ENDPOINT: "Activity"
  TEST_RESULT: "inactive"
- MOLECULE: "NC(=O)C1CCN(c2ncc(Br)cn2)CC1"
  RECORDED_ENDPOINT: "Activity"
  TEST_RESULT: "inactive"
